Biological target: T1, SsoRadA (Saccharolobus solfataricus, UniProt Q55075 1-324)
T1 sequence: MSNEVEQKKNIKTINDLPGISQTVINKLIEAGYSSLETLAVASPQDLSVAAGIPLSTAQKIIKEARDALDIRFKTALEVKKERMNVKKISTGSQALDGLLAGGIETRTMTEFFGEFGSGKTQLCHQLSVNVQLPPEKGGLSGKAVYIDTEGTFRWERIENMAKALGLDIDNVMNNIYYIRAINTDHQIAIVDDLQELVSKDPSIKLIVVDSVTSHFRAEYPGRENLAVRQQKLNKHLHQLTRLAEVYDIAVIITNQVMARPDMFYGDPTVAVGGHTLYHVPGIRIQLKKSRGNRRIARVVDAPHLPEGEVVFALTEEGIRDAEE
Assay: filter binding; 10 mM Mn2+, no ATP; Filter binding: 40 mM HEPES pH 7.0, 50 mM KCl, 10 mM CaCl2, MgCl2 or MnCl2, 20 pmol SsoRadA, 3 uM ATP where included, ssDNA varied; temperature not stated
Conditions: protein: recombinant; single strand
Experimental Readout: Kd (nM)
Numeric only. Scale: nM

Incoming: Request the reported Kd associated with 63-mer oligonucleotide (ssDNA) DNA: ACAGCACCAATGAAATCTATTAAGCTCCTCATCGTCCGCAAAAATATCGTCACCTCAAAAGGA
Outgoing: 82.4
